System: HuapoAI transgenic mice
Method: Evaluation of triglyceride and cholesterol level in HuapoAI transgenic mice
Format: in vivo
Cond: Mus musculus, 168 h; human apoAI transgenic mice, 30 mg/kg oral gavage daily for 7 days, serum 3 h after dosing; read-out: Reduction in Triglyceride Serum Level
Assay Endpoint: inhibition in vivo at 30 mg/kg (%)
Answers are plain numbers, in %.

Record excerpt, results attached:
- Compound: "Cc1oc(-c2cccs2)nc1CCOc1ccc(CC(C)(Oc2cccc(F)c2)C(=O)O)cc1 (stereo not drawn)"
  Assay Endpoint: "inhibition in vivo at 30 mg/kg"
  Endpoint Value: 19.5
- Compound: "Cc1oc(-c2cccs2)nc1CCOc1ccc(CC(C)(Oc2cccc(C(C)(C)C)c2)C(=O)O)cc1 (stereo not drawn)"
  Assay Endpoint: "inhibition in vivo at 30 mg/kg"
  Endpoint Value: 35.5
- Compound: "Cc1oc(C2CCCCC2)nc1CCOc1ccc(CC(C)(Oc2ccc3c(c2)OCO3)C(=O)O)cc1 (stereo not drawn)"
  Assay Endpoint: "inhibition in vivo at 30 mg/kg"
  Endpoint Value: 36.6
- Compound: "Cc1cccc(OC(C)(Cc2ccc(OCCc3nc(-c4cccs4)oc3C)cc2)C(=O)O)c1 (stereo not drawn)"
  Assay Endpoint: "inhibition in vivo at 30 mg/kg"
  Endpoint Value: 17.6
- Compound: "Cc1oc(-c2cccs2)nc1CCOc1ccc(CC(C)(Oc2ccc(C(C)(C)C)cc2)C(=O)O)cc1 (stereo not drawn)"
  Assay Endpoint: "inhibition in vivo at 30 mg/kg"
  Endpoint Value: 78.7
- Compound: "Cc1ccc(OC(C)(Cc2ccc(OCCc3nc(-c4cccs4)oc3C)cc2)C(=O)O)cc1C (stereo not drawn)"
  Assay Endpoint: "inhibition in vivo at 30 mg/kg"
  Endpoint Value: 23
- Compound: "Cc1oc(C2CCCCC2)nc1CCOc1ccc(CC(C)(Oc2ccc(C(C)(C)C)cc2)C(=O)O)cc1 (stereo not drawn)"
  Assay Endpoint: "inhibition in vivo at 30 mg/kg"
  Endpoint Value: 69
- Compound: "Cc1oc(-c2cccs2)nc1CCOc1ccc(CC(C)(Oc2ccccc2F)C(=O)O)cc1 (stereo not drawn)"
  Assay Endpoint: "inhibition in vivo at 30 mg/kg"
  Endpoint Value: 36.8

Provide inhibition in vivo at 30 mg/kg values for the following items, in order.
1. COc1ccc(OC(C)(Cc2ccc(OCCc3nc(-c4cccs4)oc3C)cc2)C(=O)O)cc1 (stereo not drawn)
2. Cc1oc(-c2cccs2)nc1CCOc1ccc(C[C@](C)(Oc2ccccc2)C(=O)O)cc1
3. Cc1ccc(OC(C)(Cc2ccc(OCCc3nc(C4CCCCC4)oc3C)cc2)C(=O)O)cc1C (stereo not drawn)
4. Cc1oc(C2CCCCC2)nc1CCOc1ccc(CC(C)(Oc2ccc(F)cc2)C(=O)O)cc1 (stereo not drawn)
5. Cc1oc(C2CCCCC2)nc1CCOc1ccc(CC(C)(Oc2ccccc2)C(=O)O)cc1 (stereo not drawn)
6. Cc1oc(-c2cccs2)nc1CCOc1ccc(CC(C)(Oc2ccc(F)cc2)C(=O)O)cc1 (stereo not drawn)
7. Cc1oc(C2CCCCC2)nc1CCOc1ccc(CC(C)(Oc2ccc(C3CCCCC3)cc2)C(=O)O)cc1 (stereo not drawn)

Found:
1. 40
2. 38.5
3. 32.3
4. 54
5. 42.1
6. 43
7. 57.1
